system: 388556-164-R-J1-PDC complex spheroid viability; experiment: Anticancer human tumor 388556-164-R-J1-PDC patient-derived colon adenocarcinoma cell line growth inhibition [RAS]; settings: second compound 0.000949 µM; first compound 0.0316 µM; stronger effect = lower value;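 also: spheroids exposed to compound for 7 days before readout; 100% = DMSO vehicle control luminescence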
As shown below, each of these compounds has a reported viability, T/C value.
Only the number, expressed in %, is required.

A selection of reference data follows.
[[record]]
compound = "CCC(CC)c1cc(NC2CCC(N)C2)n2nccc2n1 (stereo not drawn) + CCn1c(-c2cc(N3CCN(C)CC3)cnc2C(C)OC)c2c3cc(ccc31)-c1csc(n1)CC(NC(=O)C1CC1C)C(=O)N1CCCC(N1)C(=O)OCC(C)(C)C2"
readout_number = 84.5

[[record]]
compound = "CC(C)NCC(C(=O)N1CCN(c2ncnc3c2C(C)CC3O)CC1)c1ccc(Cl)cc1 (stereo not drawn) + CCn1c(-c2cccnc2C(C)OC)c2c3cc(ccc31)N1CCOC(CC(NC(=O)C(C(C)C)N(C)C(=O)C3(F)CCN(C(=O)C#CC(C)(C)N(C)C)CC3)C(=O)N3CCCC(N3)C(=O)OCC(C)(C)C2)C1"
readout_number = 104

[[record]]
compound = "O=C(c1ccc(F)c(F)c1Nc1ccc(I)cc1F)N1CC(O)([C@@H]2CCCCN2)C1 + CCn1c(-c2cccnc2C(C)OC)c2c3cc(ccc31)N1CCOC(CC(NC(=O)C(C(C)C)N(C)C(=O)C3(F)CCN(C(=O)C#CC(C)(C)N(C)C)CC3)C(=O)N3CCCC(N3)C(=O)OCC(C)(C)C2)C1"
readout_number = 81.7

[[record]]
compound = "Nc1ccn(C2OC(CO)C(O)C2(F)F)c(=O)n1 (stereo not drawn) + CCn1c(-c2cccnc2C(C)OC)c2c3cc(ccc31)N1CCOC(CC(NC(=O)C(C(C)C)N(C)C(=O)C3(F)CCN(C(=O)C#CC(C)(C)N(C)C)CC3)C(=O)N3CCCC(N3)C(=O)OCC(C)(C)C2)C1"
readout_number = 77.4


[Q] Give the measured viability, T/C for C=CC(=O)Nc1cc(Nc2nccc(-c3cn(C)c4ccccc34)n2)c(OC)cc1N(C)CCN(C)C + CCn1c(-c2cccnc2C(C)OC)c2c3cc(ccc31)N1CCOC(CC(NC(=O)C(C(C)C)N(C)C(=O)C3(F)CCN(C(=O)C#CC(C)(C)N(C)C)CC3)C(=O)N3CCCC(N3)C(=O)OCC(C)(C)C2)C1
[A] 91.5

[Q] Give the measured viability, T/C for CCN1CCN(Cc2ccc(Nc3ncc(F)c(-c4cc(F)c5nc(C)n(C(C)C)c5c4)n3)nc2)CC1 + CCn1c(-c2cc(N3CCN(C)CC3)cnc2C(C)OC)c2c3cc(ccc31)-c1csc(n1)CC(NC(=O)C1CC1C)C(=O)N1CCCC(N1)C(=O)OCC(C)(C)C2
[A] 93.1

[Q] Give the measured viability, T/C for Cc1nc(N2CCC3(CC2)COC(C)C3N)c(CO)nc1Sc1ccnc(N)c1Cl (stereo not drawn) + CCn1c(-c2cccnc2C(C)OC)c2c3cc(ccc31)N1CCOC(CC(NC(=O)C(C(C)C)N(C)C(=O)C3(F)CCN(C(=O)C#CC(C)(C)N(C)C)CC3)C(=O)N3CCCC(N3)C(=O)OCC(C)(C)C2)C1
[A] 97.1

[Q] Give the measured viability, T/C for C=CC(=O)N1CCN(c2nc(OCC3CCCN3C)nc3c(F)c(-c4nc(N)cc(C)c4C(F)(F)F)c(Cl)cc23)C(C)C1 (stereo not drawn) + CCn1c(-c2cc(N3CCN(C)CC3)cnc2C(C)OC)c2c3cc(ccc31)-c1csc(n1)CC(NC(=O)C1CC1C)C(=O)N1CCCC(N1)C(=O)OCC(C)(C)C2
[A] 86.2
